- System: NCI-H1437
- test summary: relative viability (nuclei count vs DMSO), 5 days (fraction); higher = more cells survive
- measurement conditions: first compound 0.03162 µM
Would you mind telling me the reported relative viability of each entry?
Give the figure only, with no unit attached.

**Query** Form field - read-out: relative viability; system: NCI-H1437; submitted item: O=c1cc(N2CCOCC2)oc2c(-c3cccc4c3sc3ccccc34)cccc12 + CCNC(=O)c1noc(-c2cc(C(C)C)c(O)cc2O)c1-c1ccc(CN2CCOCC2)cc1 [Luminespib] (partner 0.01 µM)
**Result** 1.03

**Query** Form field - read-out: relative viability; system: NCI-H1437; submitted item: CCN(CC)CCCCNc1ncc2cc(-c3cc(OC)cc(OC)c3)c(NC(=O)NC(C)(C)C)nc2n1 + Cc1nc(Nc2ncc(C(=O)Nc3c(C)cccc3Cl)s2)cc(N2CCN(CCO)CC2)n1 [Dasatinib] (partner 0.075 µM)
**Result** 0.504

**Query** Form field - read-out: relative viability; system: NCI-H1437; submitted item: O=c1cc(N2CCOCC2)oc2c(-c3cccc4c3sc3ccccc34)cccc12 + O=C(CCCCCCC(=O)Nc1ccccc1)NO [Vorinostat] (partner 1 µM)
**Result** 0.874

**Query** Form field - read-out: relative viability; system: NCI-H1437; submitted item: O=c1cc(N2CCOCC2)oc2c(-c3cccc4c3sc3ccccc34)cccc12 + C[C@]1(O)C[C@@H](c2nc(-c3ccc4ccc(-c5ccccc5)nc4c3)c3c(N)nccn32)C1 [Linsitinib] (partner 1 µM)
**Result** 1.11

**Query** Form field - read-out: relative viability; system: NCI-H1437; submitted item: O=c1cc(N2CCOCC2)oc2c(-c3cccc4c3sc3ccccc34)cccc12 + NC(=O)Nc1cc(-c2cccc(F)c2)sc1C(=O)N[C@H]1CCCNC1 [AZD7762] (partner 0.2 µM)
**Result** 1.12

**Query** Form field - read-out: relative viability; system: NCI-H1437; submitted item: O=c1cc(N2CCOCC2)oc2c(-c3cccc4c3sc3ccccc34)cccc12 + CC(=O)Nc1cccc(-n2c(=O)n(C3CC3)c(=O)c3c(Nc4ccc(I)cc4F)n(C)c(=O)c(C)c32)c1 [Trametinib] (partner 0.02 µM)
**Result** 0.548

###

- System: LK-2
- test summary: relative viability (nuclei count vs DMSO), 5 days (fraction); higher = more cells survive
- measurement conditions: first compound 8 µM
readout kind: relative viability
Give the figure only, with no unit attached.

**Query** Dear colleague, I am looking for the recorded relative viability of the following compound: O=c1cc(-c2cccc3c2Sc2ccccc2S3)oc(N2CCOCC2)c1 + Nc1nc2[nH]cc(CCc3ccc(C(=O)N[C@@H](CCC(=O)O)C(=O)O)cc3)c2c(=O)[nH]1 [Pemetrexed] (partner 0.2 µM)
**Result** 0.284

**Query** Dear colleague, I am looking for the recorded relative viability of the following compound: O=c1cc(-c2cccc3c2Sc2ccccc2S3)oc(N2CCOCC2)c1 + CC(=O)c1c(C)c2cnc(Nc3ccc(N4CCNCC4)cn3)nc2n(C2CCCC2)c1=O [Palbociclib] (partner 0.5 µM)
**Result** 0.881

**Query** Dear colleague, I am looking for the recorded relative viability of the following compound: O=c1cc(-c2cccc3c2Sc2ccccc2S3)oc(N2CCOCC2)c1 + C[C@@H](Oc1cc(-c2cnn(C3CCNCC3)c2)cnc1N)c1c(Cl)ccc(F)c1Cl [Crizotinib] (partner 1 µM)
**Result** 0.208

**Query** Dear colleague, I am looking for the recorded relative viability of the following compound: O=c1cc(-c2cccc3c2Sc2ccccc2S3)oc(N2CCOCC2)c1 + CC(=O)Nc1cccc(-n2c(=O)n(C3CC3)c(=O)c3c(Nc4ccc(I)cc4F)n(C)c(=O)c(C)c32)c1 [Trametinib] (partner 0.02 µM)
**Result** 1.03

**Query** Dear colleague, I am looking for the recorded relative viability of the following compound: O=c1cc(-c2cccc3c2Sc2ccccc2S3)oc(N2CCOCC2)c1 + N=C(N)NC(=N)NCCc1ccccc1 [Phenformin] (partner 250 µM)
**Result** 0.381

**Query** Dear colleague, I am looking for the recorded relative viability of the following compound: O=c1cc(-c2cccc3c2Sc2ccccc2S3)oc(N2CCOCC2)c1 + CCNC(=O)c1noc(-c2cc(C(C)C)c(O)cc2O)c1-c1ccc(CN2CCOCC2)cc1 [Luminespib] (partner 0.01 µM)
**Result** 0.176

Source listed as the supplement of paper PMC10307832.
